Data origin: ChEMBL document CHEMBL1149538

Target: UDP-N-acetylglucosamine--peptide N-acetylglucosaminyltransferase 110 kDa subunit (Homo sapiens)
Assay: Binding affinity to human OGT expressed in Escherichia coli […] cells assessed as alpha-FLAG-HRP activity relative to alpha-A-crystallin peptide by azido-ELISA
Conditions: BL21-DE3
Where a SMILES comes first, the peptide text is derived from it.
Measured Activity, listed per entry.
Format: numeric value only, no unit, no commentary.

Example entries begin here.
CC[C@H](C)[C@H](NC(=O)[C@@H]1CCCN1)C(=O)N1CCC[C@H]1C(=O)N[C@H](C(=O)N[C@@H](CO)C(=O)N[C@@H](CCCNC(=N)N)C(=O)N[C@@H](CCC(=O)O)C(=O)N[C@@H](CCC(=O)O)C(=O)N[C@@H](CCCCN)C(=O)O)C(C)C (H-PIPVSREEK-OH) = 1.8
CC[C@H](C)[C@H](NC(=O)[C@H](C)N)C(=O)N1CCC[C@H]1C(=O)N[C@H](C(=O)N[C@@H](CO)C(=O)N[C@@H](CCC(=O)O)C(=O)N[C@@H](CCC(=O)O)C(=O)N[C@@H](CCC(=O)O)C(=O)N[C@@H](CCCCN)C(=O)O)C(C)C (H-AIPVSEEEK-OH) = 0
CC[C@H](C)[C@H](NC(=O)[C@H](C)N)C(=O)N[C@@H](CCCNC(=N)N)C(=O)N[C@H](C(=O)N[C@@H](CO)C(=O)N[C@@H](CCCNC(=N)N)C(=O)N[C@@H](CCC(=O)O)C(=O)N[C@@H](CCC(=O)O)C(=O)N[C@@H](CCCCN)C(=O)O)C(C)C (H-AIRVSREEK-OH) = 0.2

Value lookup for Activity; key = CC[C@H](C)[C@H](NC(=O)[C@H](C)N)C(=O)N1CCC[C@H]1C(=O)N[C@H](C(=O)N[C@@H](CO)C(=O)N1CCC[C@H]1C(=O)N[C@@H](CCC(=O)O)C(=O)N[C@@H](CCC(=O)O)C(=O)N[C@@H](CCCCN)C(=O)O)C(C)C (H-AIPVSPEEK-OH)
0

* * *

Molecular target: UDP-N-acetylglucosamine--peptide N-acetylglucosaminyltransferase 110 kDa subunit (Homo sapiens) (UniProt O15294)
Sequence (O15294 whole entry): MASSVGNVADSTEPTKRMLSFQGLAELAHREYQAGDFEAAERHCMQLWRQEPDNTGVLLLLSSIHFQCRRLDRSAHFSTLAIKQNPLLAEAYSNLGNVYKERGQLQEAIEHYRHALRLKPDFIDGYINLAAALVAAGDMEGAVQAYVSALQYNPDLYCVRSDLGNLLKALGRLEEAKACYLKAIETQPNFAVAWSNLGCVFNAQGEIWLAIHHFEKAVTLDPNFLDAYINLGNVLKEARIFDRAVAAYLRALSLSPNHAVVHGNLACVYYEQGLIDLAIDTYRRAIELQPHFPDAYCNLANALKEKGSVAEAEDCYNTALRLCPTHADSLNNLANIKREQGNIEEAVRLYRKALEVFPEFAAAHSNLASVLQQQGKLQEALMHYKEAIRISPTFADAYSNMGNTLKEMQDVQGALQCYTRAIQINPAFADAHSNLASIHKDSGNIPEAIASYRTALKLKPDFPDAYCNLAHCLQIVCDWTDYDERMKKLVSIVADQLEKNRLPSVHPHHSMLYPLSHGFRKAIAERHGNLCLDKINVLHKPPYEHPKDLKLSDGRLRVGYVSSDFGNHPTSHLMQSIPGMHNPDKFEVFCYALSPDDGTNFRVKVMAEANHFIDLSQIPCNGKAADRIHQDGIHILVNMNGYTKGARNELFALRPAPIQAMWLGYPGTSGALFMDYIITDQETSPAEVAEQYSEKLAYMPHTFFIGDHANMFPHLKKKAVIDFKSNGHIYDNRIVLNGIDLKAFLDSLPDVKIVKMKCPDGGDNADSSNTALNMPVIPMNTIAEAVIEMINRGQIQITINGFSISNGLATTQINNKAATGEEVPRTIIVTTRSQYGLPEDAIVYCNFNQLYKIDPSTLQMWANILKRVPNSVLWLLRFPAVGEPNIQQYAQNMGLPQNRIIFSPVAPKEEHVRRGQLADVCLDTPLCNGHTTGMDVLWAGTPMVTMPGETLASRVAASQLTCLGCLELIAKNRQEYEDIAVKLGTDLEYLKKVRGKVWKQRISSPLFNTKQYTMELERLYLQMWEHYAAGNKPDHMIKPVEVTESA
Assay: Binding affinity to human OGT expressed in Escherichia coli […] cells assessed as alpha-FLAG-HRP activity relative to alpha-A-crystallin peptide by azido-ELISA
Conditions: BL21-DE3
Where a SMILES comes first, the peptide text is derived from it.
assay endpoint: Activity

I'd like to know its Activity. The compound in question is CC[C@H](C)[C@H](N)C(=O)N[C@H](C(=O)N1CCC[C@H]1C(=O)N[C@H](C(=O)N[C@@H](CO)C(=O)N[C@@H](CCCNC(=N)N)C(=O)N[C@@H](CCC(=O)O)C(=O)N[C@@H](CCC(=O)O)C(=O)N[C@@H](CCCCN)C(=O)O)C(C)C)[C@@H](C)CC (H-IIPVSREEK-OH)
1.6

Name the recorded Activity for CC[C@H](C)[C@H](NC(=O)[C@@H](N)CCCNC(=N)N)C(=O)N1CCC[C@H]1C(=O)N[C@H](C(=O)N[C@@H](CO)C(=O)N[C@@H](CCCNC(=N)N)C(=O)N[C@@H](CCC(=O)O)C(=O)N[C@@H](CCC(=O)O)C(=O)N[C@@H](CCCCN)C(=O)O)C(C)C (H-RIPVSREEK-OH) .
2

Given the compound CC[C@H](C)[C@H](NC(=O)[C@@H](N)CCC(=O)O)C(=O)N1CCC[C@H]1C(=O)N[C@H](C(=O)N[C@@H](CO)C(=O)N[C@@H](CCCNC(=N)N)C(=O)N[C@@H](CCC(=O)O)C(=O)N[C@@H](CCC(=O)O)C(=O)N[C@@H](CCCCN)C(=O)O)C(C)C (H-EIPVSREEK-OH) , what is its reported Activity?
1

Given CC[C@H](C)[C@H](NC(=O)[C@H](C)N)C(=O)N1CCC[C@H]1C(=O)N[C@H](C(=O)N[C@@H](CO)C(=O)N[C@@H](CCCNC(=N)N)C(=O)N[C@@H](CCCNC(=N)N)C(=O)N[C@@H](CCC(=O)O)C(=O)N[C@@H](CCCCN)C(=O)O)C(C)C (H-AIPVSRREK-OH) , state its recorded Activity.
0.6

Can you look up the measured Activity of CC[C@H](C)[C@H](NC(=O)[C@H](C)N)C(=O)N1CCC[C@H]1C(=O)N[C@H](C(=O)N[C@@H](CO)C(=O)N[C@@H](CCCNC(=N)N)C(=O)N[C@@H](CCC(=O)O)C(=O)N[C@@H](CCC(=O)O)C(=O)N[C@@H](CCCCN)C(=O)O)C(C)C (H-AIPVSREEK-OH) for me?
1

For the compound CC(C)[C@H](NC(=O)[C@@H]1CCCN1C(=O)[C@H](CCCNC(=N)N)NC(=O)[C@H](C)N)C(=O)N[C@@H](CO)C(=O)N[C@@H](CCCNC(=N)N)C(=O)N[C@@H](CCC(=O)O)C(=O)N[C@@H](CCC(=O)O)C(=O)N[C@@H](CCCCN)C(=O)O (H-ARPVSREEK-OH) , what Activity is on record?
0

Which value of Activity has been reported for CC[C@H](C)[C@H](NC(=O)[C@H](C)N)C(=O)N[C@@H](C)C(=O)N[C@H](C(=O)N[C@@H](CO)C(=O)N[C@@H](CCCNC(=N)N)C(=O)N[C@@H](CCC(=O)O)C(=O)N[C@@H](CCC(=O)O)C(=O)N[C@@H](CCCCN)C(=O)O)C(C)C (H-AIAVSREEK-OH) in the records?
0.1

* * *

Entries and their Activity
Molecular target: UDP-N-acetylglucosamine--peptide N-acetylglucosaminyltransferase 110 kDa subunit (Homo sapiens) (UniProt O15294)
Assay: Binding affinity to human OGT expressed in Escherichia coli […] cells assessed as alpha-FLAG-HRP activity relative to alpha-A-crystallin peptide by azido-ELISA
Conditions: BL21-DE3
Where a SMILES comes first, the peptide text is derived from it.
Give the value as a plain number.

Worked cases, Activity given:
CC[C@H](C)[C@H](NC(=O)[C@H](C)N)C(=O)N1CCC[C@H]1C(=O)N[C@H](C(=O)N[C@@H](CO)C(=O)N[C@@H](CCCNC(=N)N)C(=O)N1CCC[C@H]1C(=O)N[C@@H](CCC(=O)O)C(=O)N[C@@H](CCCCN)C(=O)O)C(C)C (H-AIPVSRPEK-OH) = 4.7
CC[C@H](C)[C@H](NC(=O)[C@H](C)N)C(=O)N1CCC[C@H]1C(=O)N[C@@H](CCC(=O)O)C(=O)N[C@@H](CO)C(=O)N[C@@H](CCCNC(=N)N)C(=O)N[C@@H](CCC(=O)O)C(=O)N[C@@H](CCC(=O)O)C(=O)N[C@@H](CCCCN)C(=O)O (H-AIPESREEK-OH) = 0.2
CC[C@H](C)[C@H](NC(=O)[C@@H]1CCCN1C(=O)[C@@H](NC(=O)[C@H](C)N)[C@@H](C)CC)C(=O)N[C@@H](CO)C(=O)N[C@@H](CCCNC(=N)N)C(=O)N[C@@H](CCC(=O)O)C(=O)N[C@@H](CCC(=O)O)C(=O)N[C@@H](CCCCN)C(=O)O (H-AIPISREEK-OH) = 0.3

Continue with the compound presented below.
I would be grateful if you could share the reported Activity for CC(C)[C@H](NC(=O)[C@@H]1CCCN1C(=O)[C@H](C)NC(=O)[C@H](C)N)C(=O)N[C@@H](CO)C(=O)N[C@@H](CCCNC(=N)N)C(=O)N[C@@H](CCC(=O)O)C(=O)N[C@@H](CCC(=O)O)C(=O)N[C@@H](CCCCN)C(=O)O (H-AAPVSREEK-OH) .
0.4

* * *

Biological target: UDP-N-acetylglucosamine--peptide N-acetylglucosaminyltransferase 110 kDa subunit (Homo sapiens)
Assay: Binding affinity to human OGT expressed in Escherichia coli […] cells assessed as alpha-FLAG-HRP activity relative to alpha-A-crystallin peptide by azido-ELISA
Settings: BL21-DE3
Where a SMILES comes first, the peptide text is derived from it.
assay endpoint: Activity
API doc: respond with a numeric literal and nothing else, no unit.

CC[C@H](C)[C@H](NC(=O)[C@H](CCC(=O)O)NC(=O)[C@H](CCCNC(=N)N)NC(=O)[C@H](CO)NC(=O)[C@@H](NC(=O)[C@@H]1CCCN1C(=O)[C@@H](NC(=O)[C@H](C)N)[C@@H](C)CC)C(C)C)C(=O)N[C@@H](CCCCN)C(=O)O (H-AIPVSREIK-OH) = 0.1
CC[C@H](C)[C@H](NC(=O)[C@H](C)N)C(=O)N1CCC[C@H]1C(=O)N[C@H](C(=O)N[C@@H](CO)C(=O)N[C@@H](CCCNC(=N)N)C(=O)N[C@@H](CCC(=O)O)C(=O)N[C@@H](CCCNC(=N)N)C(=O)N[C@@H](CCCCN)C(=O)O)C(C)C (H-AIPVSRERK-OH) = 0.2
CC[C@H](C)[C@H](NC(=O)[C@H](C)N)C(=O)N1CCC[C@H]1C(=O)N[C@H](C(=O)N[C@@H](CO)C(=O)N[C@@H](CCCNC(=N)N)C(=O)N[C@@H](CCC(=O)O)C(=O)N1CCC[C@H]1C(=O)N[C@@H](CCCCN)C(=O)O)C(C)C (H-AIPVSREPK-OH) = 0.3

Let's switch to this molecule now.
Form field: reported Activity of CC[C@H](C)[C@H](NC(=O)[C@H](CO)NC(=O)[C@@H](NC(=O)[C@@H]1CCCN1C(=O)[C@@H](NC(=O)[C@H](C)N)[C@@H](C)CC)C(C)C)C(=O)N[C@@H](CCC(=O)O)C(=O)N[C@@H](CCC(=O)O)C(=O)N[C@@H](CCCCN)C(=O)O (H-AIPVSIEEK-OH)
0.1
